Each entry below lists one item and its recorded Trimeric HA Binding RLU value.
Molecular target: recombinant homotrimeric HA, A/South Carolina/1/18 H1N1 (Influenza A virus A/South Carolina/1/18 (H1N1))
Assay: trimeric HA microarray, transfection set 5
Settings: remark: other sources report otherwise
Numbers only; they are read as RLU.

Guide cases for Trimeric HA Binding RLU, answers given:
{"columns": ["binder", "Trimeric HA Binding RLU, RLU"],
 "data": [
  ["TCN-553 (5261_C18) (antibody, V domains shown) VH: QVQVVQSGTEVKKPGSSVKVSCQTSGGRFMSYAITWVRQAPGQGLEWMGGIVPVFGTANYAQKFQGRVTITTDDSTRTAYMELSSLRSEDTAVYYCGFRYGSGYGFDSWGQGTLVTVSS VL: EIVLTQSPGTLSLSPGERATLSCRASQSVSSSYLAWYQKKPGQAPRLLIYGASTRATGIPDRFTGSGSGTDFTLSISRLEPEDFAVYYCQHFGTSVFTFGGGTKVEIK", 41300],
  ["TCN-538 (3206_O17) (antibody, V domains shown) VH: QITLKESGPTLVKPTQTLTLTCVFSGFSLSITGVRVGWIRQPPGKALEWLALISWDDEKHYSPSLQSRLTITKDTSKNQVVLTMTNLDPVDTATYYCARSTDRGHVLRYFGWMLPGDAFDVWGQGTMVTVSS VL: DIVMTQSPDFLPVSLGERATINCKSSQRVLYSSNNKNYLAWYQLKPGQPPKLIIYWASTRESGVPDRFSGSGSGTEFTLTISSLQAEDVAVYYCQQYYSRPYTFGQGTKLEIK", 8430]
]}

Query: Give the measured Trimeric HA Binding RLU of TCN-550 (5096_F06) (antibody, V domains shown) VH: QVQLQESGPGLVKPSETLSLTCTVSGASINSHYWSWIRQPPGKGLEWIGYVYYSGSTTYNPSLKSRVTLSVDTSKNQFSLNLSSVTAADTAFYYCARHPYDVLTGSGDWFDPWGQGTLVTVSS VL: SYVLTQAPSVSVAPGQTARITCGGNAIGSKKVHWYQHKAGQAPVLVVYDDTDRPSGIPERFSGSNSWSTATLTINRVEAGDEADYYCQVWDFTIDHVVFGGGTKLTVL .
Reply: 1010

This collection of values is drawn from patent US20120207760A1.
